Data origin, for the record: paper PMC7986984

Assay type: in vivo, mice
Settings: male, mouse, plasma, po, AUC, Chronic BDPP, over 24 h
reported_property: AUC (ng·h/mL)

| compound | reported_property | val |
| --- | --- | --- |
| O=C(O)c1cc(O)c(O)c(O)c1 | AUC | 1270 |
| O=C(O)c1ccc(O)c(O)c1 [3,4-diHBA, 3,4-Dihydroxybenzoic acid] | AUC | 138 |
| O=C1CCC(Cc2ccc(O)c(O)c2)O1 (stereo not shown) | AUC | 123 |
| O=C(O)c1ccc(O)cc1 [4-HBA, 4-Hydroxybenzoic acid] | AUC | 866 |
| O=C(O)/C=C/c1ccc(O)c(O)c1 | AUC | 52.8 |

P. O=C(O)C=Cc1ccc(O)cc1 [4-HCA, 4-Hydroxycinnamic acid]
Q. O=c1c(O)c(-c2ccc(O)cc2)oc2cc(O)cc(O)c12
// select label with min value of measured AUC from [ P , Q ] Give the label of your selection.
Q

I. O=C(O)Cc1cccc(O)c1 [3-HPAA, 3-Hydroxyphenylacetic acid]
II. O=c1c(O)c(-c2ccc(O)c(O)c2)oc2cc(O)cc(O)c12
Consider I and II . Which of these has its AUC at a higher number? Give the label of your selection.
I

* * *

Assay type: in vivo, mice
Conditions: male, mouse, plasma, po, Tmax, Chronic BDPP
reported_property: Tmax (min)

Example results:
| molecule | reported_property | val |
| --- | --- | --- |
| O=c1c(O)c(-c2ccc(O)c(O)c2)oc2cc(O)cc(O)c12 [QUER, Quercetin] | Tmax | 18 |
| O=C(O)c1cccc(O)c1 [3-HBA, 3-Hydroxybenzoic acid] | Tmax | 60 |
| O=C1CCC(Cc2ccc(O)c(O)c2)O1 (centres unmarked) [DHVL] | Tmax | 30 |
| COc1cc(CC(=O)O)ccc1O [HVA, Homovanillic acid] | Tmax | 60 |
| O=C(O)Cc1ccc(O)c(O)c1 [3,4-diHPAA, 3,4-Dihydroxyphenylacetic acid] | Tmax | 30 |

A. O=c1c(O)c(-c2ccc(O)cc2)oc2cc(O)cc(O)c12 [KAMF, Kaempferol]
B. O=C(O)Cc1cccc(O)c1 [3-HPAA, 3-Hydroxyphenylacetic acid]
// select label with min value of measured Tmax from [ A , B ] Give the label of your selection.
A

* * *

Assay type: in vivo, mice
Conditions: male, mouse, brain, po, Tmax, Chronic Synbiotic
reported_property: Tmax (h)

Example results:
| compound | display_unit | Tmax |
| --- | --- | --- |
| O=C(O)c1ccc(O)c(O)c1 [3,4-diHBA, 3,4-Dihydroxybenzoic acid] | h | 0.5 |
| O=C(O)Cc1ccccc1 | h | 8 |
| COc1cc(O)c2c(=O)c(O)c(-c3ccc(O)c(O)c3)oc2c1 | h | 0.5 |

P. COc1c(O)cc(C(=O)O)cc1O
Q. O=C(O)c1cc(O)c(O)c(O)c1
// select label with min value of measured Tmax from [ P , Q ] Give the label of your selection.
P
(P: 0.3 h, Q: 2 h)

* * *

Type: in vivo, mice
Settings: male, mouse, brain, po, Cmax, Chronic Synbiotic, n = 6 +/- SEM
reported_property: Cmax (ng/mL)

| compound | val |
| --- | --- |
| O=c1c(O)c(-c2cc(O)c(O)c(O)c2)oc2cc(O)cc(O)c12 [MYR, Myricetin] | 118 |
| O=C(O)c1cc(O)c(O)c(O)c1 [GA, Gallic acid] | 336 |
| O=C(O)Cc1ccc(O)c(O)c1 [3,4-diHPAA, 3,4-Dihydroxyphenylacetic acid] | 126 |
| COc1cc(O)c2c(=O)c(O)c(-c3ccc(O)c(O)c3)oc2c1 [7′-MeQUER, Rhamnetin] | 0.1 |
| COc1cc(C(=O)O)ccc1O [VA, Vanillic acid] | 13.9 |

P. O=C(O)CNC(=O)c1ccccc1 [HA, Hippuric acid]
Q. O=C(O)c1cccc(O)c1 [3-HBA, 3-Hydroxybenzoic acid]
R. O=C(O)c1ccc(O)cc1 [4-HBA, 4-Hydroxybenzoic acid]
S. COc1c(O)cc(C(=O)O)cc1O [4-MeGA, 4-O-Methylgallic acid]
Rank items: key Cmax, increasing. Please write the labels in the order that was asked for.
S, Q, P, R
(S: 5 ng/mL, Q: 8.9 ng/mL, P: 111 ng/mL, R: 448 ng/mL)
